Assay: in vitro
Conditions: rat
Reported metric: viability at 1 h, 100 μM (%)
One number for each entry, in %.

The recorded viability at 1 h, 100 μM for OO [H2O2, Hydrogen peroxide] is 29.1

###

Assay: in vitro
Details: rat
Reported metric: viability at 1 h, 50 μM (%)
Give bare numbers, in %.

Sample OO [H2O2, Hydrogen peroxide] ; viability at 1 h, 50 μM observed: 44.3

###

Test: Neuroprotection against oxidative damage by H2O2 in hippocampal cultures (neuronal viability)
Format: cell-based
Conditions: rat, primary hippocampal neurons from 18-day rat embryos; 50 μM H2O2 for 1 h, vehicle pre-incubation, 24 h after exposure; read-out: cell viability in the control condition (vehicle) after H2O2
Reported metric: viability at 1 h, 50 μM

Entry under test: OO [H2O2, Hydrogen peroxide] . Its viability at 1 h, 50 μM was < 50%

###

Assay: in vitro
Settings: rat
Text: Brains were used from 18-day rat embryos. The extracted hippocampi were placed in modified Hanks saline solution (mHBSS, for its name in English: Hank's buffer salt solution) and washed three times to then add trypsin (0.25%). […] The supernatant containing the cells in suspension was pooled with the above supernatant and the viable cells were counted using Trypan blue (0.2%). […]
Reported metric: viability at 1 h, 10 μM (%)
One number for each entry, in %.

So for OO [H2O2, Hydrogen peroxide] , the logged viability at 1 h, 10 μM turned out to be 69.5
